Data credit: patent US8193189B2

study-target: GST-TYK2(888-1187) (Homo sapiens, UniProt P29597)
Sequence (P29597 888-1187): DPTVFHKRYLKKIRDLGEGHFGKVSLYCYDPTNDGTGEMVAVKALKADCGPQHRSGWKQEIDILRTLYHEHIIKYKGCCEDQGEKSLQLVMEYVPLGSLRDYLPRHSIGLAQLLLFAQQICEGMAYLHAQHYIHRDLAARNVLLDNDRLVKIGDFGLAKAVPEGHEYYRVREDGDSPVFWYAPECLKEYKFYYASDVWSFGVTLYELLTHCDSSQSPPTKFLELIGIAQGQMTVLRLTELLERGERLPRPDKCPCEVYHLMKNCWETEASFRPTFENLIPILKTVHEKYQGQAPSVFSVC
Below is a list of entries, each paired with its recorded pIC50 value.
Expect pIC50 as a plain number equal to -log10 of the molar concentration.

Use the examples below as a reference point.
# structure-string, pIC50
rows = [
    ("CN1CCN(c2cccc(-c3cnc4cccc(-c5cc(F)c(CN6CCS(=O)(=O)CC6)c(F)c5)c4n3)c2)CC1", 6.85),
    ("COc1cc(-c2cnc3cccc(-c4cc(F)c(CN5CCOCC5)c(F)c4)c3n2)ccc1N1CCN(C)CC1", 6.89),
]

Find pIC50 (GST-TYK2(888-1187) (Homo sapiens, UniProt P29597)) for the entry `Cc1cc(-c2cccc3ncc(-c4ccc(C(=O)N5CCN(C)CC5)c(C)c4)nc23)ccc1CN1CCS(=O)(=O)CC1`
6.15
